TEST_PROTOCOL: qHTS assay to identify small molecule antagonists of the glucocorticoid receptor (GR) signaling pathway - cell viability counter screen (AID 720693); note: nearly all actives have a fitted effect of over 55% in size
EXPERIMENTAL_SETUP: GR-bla HeLa viability, CellTiter-Glo luminescence, 18 h, with 5 nM dexamethasone present; series mostly up to 58.5 µM
Results filed as inconclusive are left out. Active and inactive are the calls of the source. Calls come from the whole dose curve; as a rule, active = well fitted cell-killing curve with a large enough effect in the repeat runs; inconclusive = weak or mixed curves, or effect the other way; inactive = no such curve, though single readings can be large or run the other way.
I would appreciate it if you answered using one of these outcomes: TRUE for active, FALSE for inactive

See these solved cases before continuing.
COMPOUND | QUALITATIVE_LABEL
O=S(=O)(O)Oc1ccc(C(c2ccc(OS(=O)(=O)O)cc2)c2ccccn2)cc1 | FALSE
O=C(OCCO)c1ccccc1O | FALSE
COc1ccc(CCNC[C@H](O)c2ccc(O)cc2)cc1OC | FALSE
S=C1SCN(Cc2ccccc2)CN1Cc1ccccc1 | FALSE
C=C[C@]1(C)C[C@@H](OC(=O)CSC(C)(C)CNC(=O)[C@H](N)C(C)C)[C@]2(C)[C@H](C)CC[C@]3(CCC(=O)[C@H]32)[C@@H](C)[C@@H]1O | FALSE
CC(C)(C)CC(=O)OCC(=O)[C@@]12OC(C)(C)O[C@@H]1C[C@H]1[C@@H]3CCC4=CC(=O)C=C[C@]4(C)[C@@]3(F)[C@@H](O)C[C@@]12C | FALSE
CO/N=C(\C(=O)N[C@@H]1C(=O)N2C(C(=O)O)=CCS[C@H]12)c1csc(N)n1 | FALSE
CCCCCCOc1ccc(C(=N)N(CCCC)CCCC)c2ccccc12 | TRUE
CC[C@H](C)[C@H]1O[C@]2(CC[C@@H]1C)C[C@@H]1C[C@@H](C/C=C(\C)[C@@H](O[C@H]3C[C@H](OC)[C@@H](O[C@H]4C[C@H](OC)[C@@H](O)[C@H](C)O4)[C@H](C)O3)[C@@H](C)/C=C/C=C3\CO[C@@H]4[C@H](O)C(C)=C[C@@H](C(=O)O1)[C@]34O)O2 | TRUE
N[C@H](CCC(=O)O)C(=O)O | FALSE

Ask: Answer briefly: the call reported for COc1ccc(C2(C#N)CCC(C(=O)O)CC2)cc1OC1CCCC1 (stereo not drawn) in this assay.
Reply: FALSE

These entries and their values trace back to PubChem BioAssay (Tox21).
